These data points were gathered from patent US20260069689A1.

Biological target: SARS-COV-2 RBD extracellular domain expressed with a C-terminal myc-myc-hexahistidine tag (SARS-CoV-2)
Assay: SPR (Biacore), mAb captured by anti-human Fc, RBD-mmH in solution, 25 C

{"BINDER": "mAb15158 (antibody, V domains shown) VH: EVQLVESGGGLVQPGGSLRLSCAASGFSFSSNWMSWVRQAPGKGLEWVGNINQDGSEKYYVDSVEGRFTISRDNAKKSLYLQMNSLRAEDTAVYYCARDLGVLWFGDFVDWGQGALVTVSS VL: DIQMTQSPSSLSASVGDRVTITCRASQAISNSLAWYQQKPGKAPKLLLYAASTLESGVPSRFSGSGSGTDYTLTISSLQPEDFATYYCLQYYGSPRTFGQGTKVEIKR", "Kd [nM]": 0.779}
{"BINDER": "mAb13459 (antibody, V domains shown) VH: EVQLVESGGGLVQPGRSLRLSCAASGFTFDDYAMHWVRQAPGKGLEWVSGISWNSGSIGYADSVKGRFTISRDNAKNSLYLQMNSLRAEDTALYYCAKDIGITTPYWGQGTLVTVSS VL: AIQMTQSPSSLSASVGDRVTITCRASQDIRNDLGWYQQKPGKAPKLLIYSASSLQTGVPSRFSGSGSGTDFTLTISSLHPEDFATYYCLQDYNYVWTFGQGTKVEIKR", "Kd [nM]": 2.51}
{"BINDER": "mAb14247 (antibody, V domains shown) VH: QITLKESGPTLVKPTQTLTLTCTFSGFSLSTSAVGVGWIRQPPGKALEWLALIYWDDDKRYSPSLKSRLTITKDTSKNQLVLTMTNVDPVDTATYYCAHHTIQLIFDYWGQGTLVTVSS VL: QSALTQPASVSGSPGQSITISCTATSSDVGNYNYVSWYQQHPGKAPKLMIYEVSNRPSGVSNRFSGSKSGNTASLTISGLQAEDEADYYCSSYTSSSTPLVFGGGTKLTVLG", "Kd [nM]": 1.94}
